- Test system: lambsquarters
- assay info: Test B pre-/postemergence herbicide test
- Format: in vivo, Chenopodium album
- conditions used: postemergence, 500 g ai/ha; scale 0 to 100, 0 is no effect, 100 is complete control
- Protocol: […] At the same time, plants selected from these crop and weed species and also blackgrass (Alopecurus myosuroides Huds.), wheat (Triticum aestivum L.) and wild oat (Avena fatua L.) were treated with postemergence applications of test chemicals formulated in the same manner. […] Treated plants and controls were maintained in a greenhouse for 13 to 15 days, after which time all species were compared to controls and visually evaluated. […]
quantity measured: Lambsquarters plant response rating

CCOc1ccc(F)c(NC(=O)c2cc(C(C)(C)C)nn2CC)c1 [Compound 348]	0
Cc1nn(C(C)(C)C)cc1C(=O)Nc1cc(C(=O)N(C)C)ccc1F [Compound 344]	40
CCC1=NN(C(C)(C)C)CC1C(=O)Nc1cc(C(=O)N(C)CC)ccc1F (racemic) [Compound 342]	100
CCn1nc(C(C)(C)C)cc1C(=O)Nc1cccc(OC(C)C)c1 [Compound 273]	90
CCn1nc(C(C)(C)C)cc1C(=O)Nc1cc(C(=O)N2CCCC2)ccc1F [Compound 242]	90
CCN1N=C(C(C)(C)C)CC1C(=O)Nc1cc(C(=O)N2CCCC2)ccc1F (racemic) [Compound 309]	80
CCn1nc(C(C)(C)C)cc1C(=O)Nc1nc(C(=O)N(C)C)ccc1F [Compound 277]	30
